test.details: in vivo
measurement.kind: LD50 (mg/kg)
# unit: mg/kg | format: bare number

// known answers, use as guide
[
  {
    "chemical.string": "COc1cc(CN2CCN(c3ccc4c(c3)OCO4)CC2)cc(OC)c1OC",
    "experimental.result": 297
  },
  {
    "chemical.string": "COc1cc(CN2CCN(c3ccc(C)c(C)c3)CC2)cc(OC)c1OC",
    "experimental.result": 260
  },
  {
    "chemical.string": "COc1cc(CN2CCN(c3cc(OC)c(OC)c(OC)c3)CC2)cc(OC)c1OC",
    "experimental.result": 350
  },
  {
    "chemical.string": "COc1cc(CN2CCN(c3cc(C(F)(F)F)cc(C(F)(F)F)c3)CC2)cc(OC)c1OC",
    "experimental.result": 280
  },
  {
    "chemical.string": "COc1cc(CN2CCN(c3ccc(Cl)c(C(F)(F)F)c3)CC2)cc(OC)c1OC",
    "experimental.result": 283
  }
]

IN: # get_value(readout='LD50', item= COc1cc(CN2CCN(c3c(C)cccc3C)CC2)cc(OC)c1OC )
OUT: 265

---

Listed next: entries and their corresponding selectivity ratio.
test.details: in vivo
stated.conditions: iv
Please respond with just the number, no unit label.

[
  {
    "compound": "COc1cc(CN2CCN(c3ccc(F)cc3)CC2)cc(OC)c1OC.Cl [p. Fluoro-, hydrochloride]",
    "selectivity ratio": 1570
  }
]

IN: # get_value(readout='selectivity ratio', item= COc1cccc(N2CCN(Cc3cc(OC)c(OC)c(OC)c3)CC2)c1.Cl [m. Methoxy-, hydrochloride] )
OUT: 2010

IN: And the next one, COc1ccccc1N1CCN(Cc2cc(OC)c(OC)c(OC)c2)CC1.Cl.Cl [o. Methoxy-, dihydrochloride] ?
OUT: 2750

IN: And the next one, COc1cc(CN2CCN(c3cccc(C)c3)CC2)cc(OC)c1OC.Cl [m. Methyl-, hydrochloride] ?
OUT: 1520

---

test.details: in vivo
stated.conditions: iv
Counter-ions that a name gives are not always drawn.
measurement.kind: LD50
Please report the result as a number followed by the unit.

// known answers, use as guide
[
  {
    "compound": "COc1cc(CN2CCN(c3ccc(C)cc3)CC2)cc(OC)c1OC [p. Methyl-, hydrochloride]",
    "LD50": "720 mg/kg"
  },
  {
    "compound": "COc1cccc(N2CCN(Cc3cc(OC)c(OC)c(OC)c3)CC2)c1.Cl",
    "LD50": "850 mg/kg"
  },
  {
    "compound": "COc1cc(CN2CCN(c3ccccc3C)CC2)cc(OC)c1OC",
    "LD50": "700 mg/kg"
  }
]

IN: # get_value(readout='LD50', item= COc1ccccc1N1CCN(Cc2cc(OC)c(OC)c(OC)c2)CC1.Cl.Cl )
OUT: 1150 mg/kg

IN: And the next one, COc1cc(CN2CCN(c3ccc(F)cc3)CC2)cc(OC)c1OC.Cl ?
OUT: 580 mg/kg

---

test.details: acute toxicity after oral application, LD50
stated.conditions: mouse, in vivo, po; read-out: Acute toxicity LD50, 24 h
measurement.kind: LD50 at 24 h (mg/kg)
# unit: mg/kg | format: bare number

// known answers, use as guide
[
  {
    "chemical.string": "COc1cc(CN2CCN(c3ccc4c(c3)OCO4)CC2)cc(OC)c1OC",
    "LD50 at 24 h (mg/kg)": 312
  },
  {
    "chemical.string": "COc1cc(CN2CCN(c3ccc(Cl)c(C(F)(F)F)c3)CC2)cc(OC)c1OC",
    "LD50 at 24 h (mg/kg)": 328
  },
  {
    "chemical.string": "COc1cc(CN2CCN(c3ccc(C)c(C)c3)CC2)cc(OC)c1OC",
    "LD50 at 24 h (mg/kg)": 348
  },
  {
    "chemical.string": "COc1cc(CN2CCN(c3cc(OC)c(OC)c(OC)c3)CC2)cc(OC)c1OC",
    "LD50 at 24 h (mg/kg)": 348
  },
  {
    "chemical.string": "COc1cc(CN2CCN(c3c(C)cccc3C)CC2)cc(OC)c1OC",
    "LD50 at 24 h (mg/kg)": 348
  }
]

IN: # get_value(readout='LD50 at 24 h', item= COc1cc(CN2CCN(c3cc(C(F)(F)F)cc(C(F)(F)F)c3)CC2)cc(OC)c1OC )
OUT: 300
